Recorded pEC50 for the following compounds
- methodDescription: Inhibition of reverse transcriptase Y181C mutant in HIV1 infected in human MT4 cells assessed as protection against virus induced cytotoxicity after 5 days by MTT assay
pEC50: −log10 of the molar value.
readout: pEC50

compoundStructure: COC(=O)c1ccc(NC(=O)CSc2nc3ccccc3n2S(=O)(=O)c2cc(C)cc(C)c2)cc1
assayResult: < 5.08
//
compoundStructure: Cc1ccc(NC(=O)CSc2nc3ccccc3n2S(=O)(=O)c2cc(C)cc(C)c2)cc1
assayResult: < 5.50
//
compoundStructure: Cc1cc(C)cc(S(=O)(=O)n2c(SCC(=O)Nc3ccc(S(N)(=O)=O)cc3)nc3ccccc32)c1
assayResult: < 4.57
//
compoundStructure: Cc1cc(C)cc(S(=O)(=O)n2c(SCC(=O)Nc3ccc(S(C)(=O)=O)cc3)nc3ccccc32)c1
assayResult: < 4.98
//
compoundStructure: Cc1cc(C)cc(S(=O)(=O)n2c(SCC(=O)Nc3ccc(C(=O)O)cc3)nc3ccccc32)c1
assayResult: 4.63
//
compoundStructure: Cc1cc(C)cc(S(=O)(=O)n2c(OCC(=O)Nc3ccc(S(C)(=O)=O)cc3Cl)nc3ccccc32)c1
assayResult: 6.05

* * *

- methodDescription: Inhibition of reverse transcriptase L100I mutant in HIV1 infected in human MT4 cells assessed as protection against virus induced cytotoxicity after 5 days by MTT assay
Hi! Could you tag entries with EC50 below 200 nM as met, and those at or above as not met? Much appreciated.

compoundStructure: Cc1cc(C)cc(S(=O)(=O)n2c(SCC(=O)Nc3ccc(C(=O)O)cc3)nc3ccccc32)c1
qualitativeLabel: not met
--
compoundStructure: Cc1cc(C)cc(S(=O)(=O)n2c(SCC(=O)Nc3ccc(S(N)(=O)=O)cc3)nc3ccccc32)c1
qualitativeLabel: met
--
compoundStructure: Cc1cc(C)cc(S(=O)(=O)n2c(SCC(=O)Nc3ccc(S(C)(=O)=O)cc3)nc3ccccc32)c1
qualitativeLabel: met
--
compoundStructure: Cc1cc(C)cc(S(=O)(=O)n2c(OCC(=O)Nc3ccc(S(C)(=O)=O)cc3Cl)nc3ccccc32)c1
qualitativeLabel: not met
--
compoundStructure: COC(=O)c1ccc(NC(=O)CSc2nc3ccccc3n2S(=O)(=O)c2cc(C)cc(C)c2)cc1
qualitativeLabel: met
--
compoundStructure: Cc1ccc(NC(=O)CSc2nc3ccccc3n2S(=O)(=O)c2cc(C)cc(C)c2)cc1
qualitativeLabel: not met

* * *

- methodDescription: Inhibition of reverse transcriptase Y188L mutant in HIV1 infected in human MT4 cells assessed as protection against virus induced cytotoxicity after 5 days by MTT assay
pEC50: −log10 of the molar value.

compoundStructure: Cc1cc(C)cc(S(=O)(=O)n2c(SCC(=O)Nc3ccc(S(C)(=O)=O)cc3)nc3ccccc32)c1
pEC50: < 4.98

compoundStructure: COC(=O)c1ccc(NC(=O)CSc2nc3ccccc3n2S(=O)(=O)c2cc(C)cc(C)c2)cc1
pEC50: < 5.08

compoundStructure: Cc1cc(C)cc(S(=O)(=O)n2c(OCC(=O)Nc3ccc(S(C)(=O)=O)cc3Cl)nc3ccccc32)c1
pEC50: < 3.64

compoundStructure: Cc1cc(C)cc(S(=O)(=O)n2c(SCC(=O)Nc3ccc(S(N)(=O)=O)cc3)nc3ccccc32)c1
pEC50: 5.81

compoundStructure: Cc1cc(C)cc(S(=O)(=O)n2c(SCC(=O)Nc3ccc(C(=O)O)cc3)nc3ccccc32)c1
pEC50: < 3.91

compoundStructure: Cc1ccc(NC(=O)CSc2nc3ccccc3n2S(=O)(=O)c2cc(C)cc(C)c2)cc1
pEC50: < 5.50

Numbers sourced from BindingDB's records for doi:10.1016/j.bmc.2017.12.033.
